- reported conditions: in ethanol, 303.2 K
metric name: solubility (mole fraction)
Returns: the value as a bare number; no unit string appended.

What value of solubility (mole fraction) has been recorded for this entry: Cc1cc(=O)c(C(=O)N[C@@H](C(=O)N[C@@H]2C(=O)N3C(C(=O)O)=C(CSc4nnnn4C)CS[C@H]23)c2ccc(O)cc2)c[nH]1
0.00101

====

- reported conditions: in ethanol, 283.2 K
metric name: solubility (mole fraction)
Write the value as a bare number.

Entry under review: Cc1cc(=O)c(C(=O)N[C@@H](C(=O)N[C@@H]2C(=O)N3C(C(=O)O)=C(CSc4nnnn4C)CS[C@H]23)c2ccc(O)cc2)c[nH]1 . Reported solubility (mole fraction)?
0.000508
